Record set: log10(Ki) | Coagulation factor X (Homo sapiens, UniProt P00742) | literature, multiple sources.
Units before log transform: nM; reported quantity: Ki; transform: log10.

Please tell me: log10(Ki) of N=C(N)c1cccc(NC(=O)CC2CC(c3cccc(C(=N)N)c3)=NO2)c1 (stereo not given) , system Coagulation factor X (Homo sapiens, UniProt P00742)?
3.26

Report log10(Ki) for "CCCCOC(=O)[C@H](Cc1cccc(C(=N)N)c1)NS(=O)(=O)c1ccc2ccccc2c1" tested on Coagulation factor X (Homo sapiens, UniProt P00742).
3.49

API: value(readout= log10(Ki), system= Coagulation factor X (Homo sapiens, UniProt P00742), query= "CC(=N)N1CCC(Oc2ccc3cc(C(=O)N(C)C)n(Cc4ccc5ccc(C(=N)N)cc5c4)c3c2)CC1" )
0.54

Reported log10(Ki) for Coagulation factor X (Homo sapiens, UniProt P00742), given N=C(N)c1cccc(C(=O)N[C@@H](Cc2ccccc2)C(=O)NCC2CCC(CN)CC2)c1 (stereo not given in full) ?
4.53

Value wanted: log10(Ki) (Coagulation factor X (Homo sapiens, UniProt P00742)) of entry "N=C(N)c1ccc(O)c(Oc2cc(C(=O)O)cc(Oc3cccc(NCCN)c3)n2)c1"
1.89
